B1: Twister Ribozyme (parent)
chain: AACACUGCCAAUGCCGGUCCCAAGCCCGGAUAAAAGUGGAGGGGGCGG

# Variants of: B1
# EXPERIMENT SUMMARY: self-cleavage, relative activity (ratio to wild type); higher = more cleavage; co-transcriptional
// class assignment uses self-cleavage with these ranges: low group (below 0.2), middle group (0.2 to below 0.4), high group (0.4 or more)

[[record]]
sequence_variant = "A30C G36U"
assigned_label = "low group"

[[record]]
sequence_variant = "G13C A30G"
assigned_label = "high group"

[[record]]
sequence_variant = "C20G G48A"
assigned_label = "low group"

[[record]]
sequence_variant = "C27U A30C"
assigned_label = "high group"

[[record]]
sequence_variant = "G7C G42U"
assigned_label = "low group"


Prompt: Bin? A40C C46G
Completion: middle group

Prompt: Bin? A33C U37A
Completion: high group

Prompt: Bin? A11G C46U
Completion: high group

Prompt: Bin? C5A G29U
Completion: high group

Prompt: Bin? A2G G47U
Completion: low group

Prompt: Bin? A10G G28U
Completion: high group

Prompt: Bin? G41C G45A
Completion: middle group

Prompt: Bin? C5A G28C
Completion: middle group

Prompt: Bin? A4U A23G
Completion: low group

Prompt: Bin? U6G G39A
Completion: low group

Prompt: Bin? G13C G44C
Completion: low group

Prompt: Bin? A1G G24C
Completion: low group

Prompt: Bin? U6G G13C
Completion: low group

Prompt: Bin? G29C G38U
Completion: high group

Prompt: Bin? C26U U31A
Completion: high group

Prompt: Bin? C3U G24C
Completion: low group
